# Tested on: Nanoluciferase (engineered Oplophorus gracilirostris luciferase)
# EXPERIMENT SUMMARY: Primary Nanoluciferase (NLuc) qHTS assay for identification of artifact compounds. (AID 1845222);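 note: NLuc secreted into diluted conditioned medium of S16 cells; 0% = DMSO and -100% = no enzyme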
# CONDITIONS: NLuc-conditioned medium, Nano-Glo luminescence, 5 min; series mostly up to 54.1 µM
Active and inactive are the calls of the source. Calls come from the whole dose curve; as a rule, active = well fitted inhibition curve with a large enough effect; inconclusive = small, poorly fitted or top-dose-only effect; inactive = flat fitted curve, though single readings scatter.
READOUT LABEL: activity, negative = inhibition

Param readout= activity, negative = inhibition; system= Nanoluciferase (engineered Oplophorus gracilirostris luciferase); entry= C/C(=C\CCC(C)CCO)C(=O)O[C@@H]1[C@@H](O)[C@H](OC2OC=C(C(=O)O)C3CCC(C)(O)C23)O[C@H](CO)[C@H]1O (stereo partly drawn) ; returns value.
inactive

Also need C[C@H](NC(c1cccc(C[P+](=O)O)c1)[C@H](C)O)c1ccc(Cl)c(Cl)c1 (stereo partly drawn) , thanks.
inactive

Cool, now CC1(C)CC[C@]2(C(=O)O[C@@H]3O[C@H](CO)[C@@H](O)[C@H](O)[C@H]3O)CC[C@]3(C)C(=CCC4[C@@]5(C)C[C@@H](O)[C@H](O)C(C)(C)C5[C@H](O)C[C@]43C)[C@@H]2[C@@H]1O (stereo partly drawn)
inactive

Quick one: CC(C)C(C#N)O[C@@H]1O[C@H](CO[C@@H]2O[C@@H](C)[C@H](O)[C@@H](O)[C@H]2O)[C@@H](O)[C@H](O)[C@H]1O (stereo partly drawn)
inactive

Now consider CC(=O)O[C@H]1CC[C@@]2(C)C(CC[C@@H](C)[C@]23Cc2c(O)cc4c(c2O3)CN([C@@H](CCC(=O)O)C(=O)O)C4=O)C1(C)C (stereo partly drawn) .
inactive

Others:
Request: activity, negative = inhibition, test system Nanoluciferase (engineered Oplophorus gracilirostris luciferase), entry `CC(=O)c1cc(C(=O)N[C@@H](C)Cn2ccc(-c3ccc(C#N)c(Cl)c3)n2)[nH]n1`
inactive

Thanks! And `CO[C@H]1/C=C/C=C/C=C/C[C@H](OC(=O)[C@@H](C)NC(=O)C2CCCCC2)[C@H](C)[C@@H](O)/C(C)=C/CCc2cc(O)cc(c2)NC(=O)C1` ?
inactive

What about CCC(C)C(=O)O[C@H]1CCC=C2C=C[C@H](C)[C@H](CC[C@@H](O)C[C@@H](O)CC(=O)O)[C@H]21 (stereo partly drawn) ?
inactive

----------
# EXPERIMENT SUMMARY: Primary qHTS for inhibitors of nuclear receptor binding SET domain protein 2 (NSD2) in an isogenic RCH-ACV NSD2 p.E1099K mutant (9B) (AID 1645876); note: nearly all actives have a fitted effect of over 70% in size
# CONDITIONS: RCH-ACV NSD2 E1099K (9B) viability, CellTiter-Glo, 72 h; series mostly up to 44.9 µM
Inconclusive results are not listed. Active and inactive are the calls of the source. Calls follow the shape of the dose curve; as a rule, active = well fitted inhibition curve with a large enough effect; inconclusive = small, poorly fitted or top-dose-only effect; inactive = flat fitted curve, though single readings scatter.
Lab note: assign the record to one of 1.0 for active, 0.0 for inactive

Below are worked cases with known answers.
Could you please tell me the result logged for `NC(=O)[C@H](O[C@@H]1O[C@H](CO)[C@@H](O)[C@H](O)[C@H]1O)c1ccccc1` in this assay?
0.0

And CC1CCC23COC(=O)C2=CC(O)CC3C1(C)CCC1=CC(O)OC1=O (stereo unspecified) ?
0.0

And for C[C@@H]1CCC2C(C)(C)[C@H](O)CC[C@]2(C)[C@@]12Cc1c(O)cc3c(c1O2)CN([C@@H](CCC(=O)O)C(=O)O)C3=O (stereo partly specified) ?
0.0

Another compound to check: `CCOc1ccc(NC(=S)N2CCC(C(O)(c3ccccc3)c3ccccc3)CC2)cc1`
0.0

Next record, please: `COc1c/c(=C2\C=c3ccccc3=N2)[nH]/c1=C\c1[nH]c(C)cc1C`
1.0

More entries:
Dear colleague, could you share the recorded outcome for C=C[C@H]1C(O[C@@H]2O[C@H](CO)[C@@H](O)[C@H](O)[C@H]2O)OC=C2C(=O)N3CCc4c([nH]c5ccccc45)C3CC21 (stereo partly specified) when you have a moment?
0.0

Now the compound `CCCCCCOc1cc2c(cc1N(C)c1ncc(C(=O)O)cn1)C(C)(C)CCC2(C)C`
0.0

Proceed to CC1CCC2(OC1)OC1CC3C4CCC5C[C@@H](O[C@@H]6O[C@H](CO[C@@H]7OC[C@@H](O)[C@H](O)[C@H]7O)[C@H](O)[C@H](O)[C@H]6O)CC[C@]5(C)C4CC[C@]3(C)C1C2C (stereo partly specified)
0.0

Then this compound: `O=C(O)[C@H](Cc1ccc(Nc2nccc3ccncc23)cc1)NC1=C(Br)C(=O)C12CCCCC2`
0.0

Could you do the same for CC(=O)OC1C(=O)C2(C)C(O)CC3OCC3(OC(C)=O)C2C(OC(=O)c2ccccc2)C2(O)CC(OC(=O)C(O)C(NC(=O)c3ccccc3)c3ccccc3)C(C)=C1C2(C)C (stereo unspecified) , please?
1.0

Note, next up: `CC(=O)OC[C@H]1O[C@H](O[C@]2(CO)O[C@H](CO)[C@@H](OC(=O)/C=C/c3ccccc3)[C@@H]2O)[C@H](O)[C@@H](O)[C@@H]1O`
0.0

----------
# EXPERIMENT SUMMARY: Primary qHTS for inhibitors of nuclear receptor binding SET domain protein 2 (NSD2) in an isogenic RCH-ACV NSD2 p.E1099K mutant (9B) (AID 1645876); note: nearly all actives have a fitted effect of over 70% in size
# CONDITIONS: RCH-ACV NSD2 E1099K (9B) viability, CellTiter-Glo, 72 h; series mostly up to 44.9 µM
Inconclusive results are not listed. Activity calls are given as the source filed them. The call rests on the fitted dose curve; in most records, active means well fitted inhibition curve with a large enough effect; inconclusive means small, poorly fitted or top-dose-only effect; inactive means flat fitted curve, though single readings scatter.
Log the outcome using a class from TRUE (active), FALSE (inactive)

Could you please tell me the result logged for CC1=C2C[C@H]3O[C@@]3(C)CCC3O[C@@]3(C)C[C@@]2(O)OC1=O (stereo not given in full) in this assay?
FALSE

Consider now this further compound.
Fill in: this test's call for CC1CC(C(O)C(C)(C)O)OC2CC3(C)C4(C)CCC5C(C)(C)C(=O)CCC5(C)C4CCC3(O)C12O (stereo not given) is ___
FALSE

----------
Listed here: items and their measured activity change, negative = viability loss.
# EXPERIMENT SUMMARY: Primary qHTS for inhibitors of nuclear receptor binding SET domain protein 2 (NSD2) in an isogenic RCH-ACV NSD2 p.E1099K mutant (9B) (AID 1645876); note: nearly all actives have a fitted effect of over 70% in size; for activity change, negative = viability loss: % is set by controls: 0 for no effect and ±100 for the full control effect
# CONDITIONS: RCH-ACV (leukaemia line) NSD2 E1099K (9B) viability, CellTiter-Glo, 72 h; series mostly up to 44.9 µM
Results filed as inconclusive are left out. The source made the active and inactive calls. Calls come from the whole dose curve; as a rule, active = well fitted inhibition curve with a large enough effect; inconclusive = small, poorly fitted or top-dose-only effect; inactive = flat fitted curve, though single readings scatter.

# annotated cases, reported activity change, negative = viability loss shown
Please look up its activity change, negative = viability loss: COC1CC(O[C@H]2CC[C@@]3(C)C(CCC4C3[C@H](OC(C)=O)[C@@H](OC(=O)/C=C/c3ccccc3)[C@]3(C)C(C(C)=O)CC[C@]43O)C2)OC(C)C1OC1CC(OC)C(OC2CC(OC)C(OC3OC(C)C(OC4OC(CO)C(O)C(O)C4O)C(OC)C3O)C(C)O2)C(C)O1 (stereo partly specified)
-23.3% [at 9.23 µM] (inactive)

Another compound: CC1(C)CC[C@]2(C(=O)O[C@@H]3O[C@H](CO[C@@H]4O[C@H](CO)[C@@H](O)[C@H](O)[C@H]4O[C@@H]4O[C@H](CO)[C@H](O)[C@H](O)[C@H]4O)[C@@H](O)[C@H](O[C@@H]4O[C@H](CO)[C@@H](O)[C@H](O)[C@H]4O)[C@H]3O)CC[C@]3(C)C(=CCC4[C@@]5(C)CC[C@H](O[C@@H]6OC[C@@H](O)[C@H](O)[C@H]6O)[C@@](C)(C(=O)O)C5CC[C@]43C)[C@@H]2C1 (stereo partly specified)
-8.77% [at 9.23 µM] (inactive)

Likewise for C[C@@H]1O[C@@H](O[C@H]2[C@H](OC(=O)[C@]34CCC(C)(C)C[C@H]3C3=CCC5[C@@]6(C)C[C@H](O)[C@H](O[C@@H]7O[C@H](CO)[C@@H](O)[C@H](O)[C@H]7O)[C@@](C)(CO)C6[C@H](O)C[C@@]5(C)[C@]3(C)CC4)OC[C@H](O)[C@@H]2O)[C@H](O)[C@H](O)[C@H]1O[C@@H]1OC[C@@H](O)[C@H](O[C@@H]2OC[C@](O)(CO)[C@H]2O)[C@H]1O (stereo partly specified) ?
-10.4% [at 9.23 µM] (inactive)

One more compound: CC1(C)CCC2(C(=O)OC3OCC(O)C(O)C3O)CCC3(C)C(=CCC4C5(C)CC(O)C(OC6OC(COC7OCC(O)C(O)C7O)C(O)C(O)C6O)C(C)(C)C5CCC43C)C2C1 (stereo unspecified)
-10.4% [at 9.23 µM] (inactive)

// next record C[C@@H]1O[C@@H](O[C@H]2[C@H](O[C@H]3[C@H](O[C@H]4CC[C@@]5(C)C(CC[C@]6(C)C5CC=C5[C@@H]7CC(C)(C)C[C@@H](O)[C@]7(C)CC[C@]56C)[C@@]4(C)CO)O[C@H](C(=O)O)[C@@H](O)[C@@H]3O)OC[C@H](O)[C@@H]2O)[C@H](O)[C@H](O)[C@H]1O (stereo partly specified)
2.23% [at 9.23 µM] (inactive)

Now examine the next entry.
What value of measured activity change, negative = viability loss is listed for C[C@@H]1O[C@@H](O[C@H]2[C@H](O[C@H]3CC[C@@]4(C)C(CC[C@]5(C)C4CC=C4[C@@H]6CC(C)(C)CC[C@]6(C(=O)O[C@@H]6OC[C@H](O)[C@H](O)[C@H]6O[C@@H]6O[C@@H](C)[C@H](O[C@@H]7O[C@H](CO)[C@@H](O)[C@H](O)[C@H]7O)[C@H](O)[C@H]6O)[C@H](O)C[C@]45C)C3(C)C)O[C@H](CO)[C@@H](O[C@@H]3OC[C@@H](O)[C@H](O)[C@H]3O)[C@@H]2O)[C@H](O)[C@H](O)[C@H]1O (stereo partly specified) ?
-6.56% [at 9.23 µM] (inactive)
